System: HepG2
Assay: Cytotoxicity in human HepG2 cells assessed as reduction in cell viability incubated for 48 hrs by MTT assay
Type: cell-based
Settings: hepg2, 48 h

compound: COC(=O)C1=CO[C@@H](O[C@@H]2O[C@H](CO)[C@@H](O)[C@H](O)[C@H]2O)[C@@H]2[C@H](C)O[C@@H](O)C[C@H]12 [MORRONISIDE]
Activity: Non-Toxic
--
compound: COC(=O)C1=CO[C@@H](O[C@@H]2O[C@H](CO)[C@@H](O)[C@H](O)[C@H]2O[C@@H]2C[C@@H]3C(C(=O)OC)=CO[C@@H](O[C@@H]4O[C@H](CO)[C@@H](O)[C@H](O)[C@H]4O)[C@@H]3[C@H](C)O2)[C@@H]2[C@@H](C)[C@@H](O)C[C@H]12
Activity: Non-Toxic

###

Test system: HepG2
Experiment: Cytotoxicity in human HepG2 cells assessed as reduction in cell viability incubated for 48 hrs by MTT assay
Type: cell-based
Conditions: hepg2, 48 h

smi: COC(=O)C1=CO[C@@H](O[C@@H]2O[C@H](CO)[C@@H](O)[C@H](O)[C@H]2O)[C@@H]2[C@H](C)O[C@H](O[C@H]3[C@H](O[C@@H]4OC=C(C(=O)OC)[C@H]5C[C@@H](OC)O[C@@H](C)[C@@H]45)O[C@H](CO)[C@@H](O)[C@@H]3O)C[C@H]12
experimentalSystem: HepG2
Activity: Non-Toxic

smi: COC(=O)C1=CO[C@@H](O[C@@H]2O[C@H](CO)[C@@H](O[C@H]3C[C@@H]4C(C(=O)OC)=CO[C@@H](O[C@@H]5O[C@H](C)[C@@H](O)[C@H](O)[C@H]5O)[C@@H]4[C@H](C)O3)[C@H](O)[C@H]2O)[C@@H]2[C@@H](C)[C@@H](O)C[C@H]12
experimentalSystem: HepG2
Activity: Non-Toxic

smi: COC(=O)C1=CO[C@@H](O[C@@H]2O[C@H](CO)[C@@H](O)[C@H](O)[C@H]2O)[C@@H]2[C@H](C)O[C@H](O[C@H]3[C@H](O[C@@H]4OC=C(C(=O)OC)[C@H]5C[C@H](OC)O[C@@H](C)[C@@H]45)O[C@H](CO)[C@@H](O)[C@@H]3O)C[C@H]12
experimentalSystem: HepG2
Activity: Non-Toxic

smi: COC(=O)C1=CO[C@@H](O[C@@H]2O[C@H](C)[C@@H](O)[C@H](O)[C@H]2O)[C@@H]2[C@H](C)O[C@@H](O[C@@H]3[C@@H](O)[C@H](O[C@@H]4OC=C(C(=O)OC)[C@H]5C[C@H](OC)O[C@@H](C)[C@@H]45)O[C@H](CO)[C@H]3O)C[C@H]12
experimentalSystem: HepG2
Activity: Non-Toxic

smi: CCO[C@@H]1C[C@@H]2C(C(=O)OC)=CO[C@@H](O[C@@H]3O[C@H](CO)[C@@H](O)[C@H](O)[C@H]3O)[C@@H]2[C@H](C)O1
experimentalSystem: HepG2
Activity: Non-Toxic

smi: COC(=O)C1=CO[C@@H](O[C@@H]2O[C@H](CO[C@@H]3C[C@@H]4C(C(=O)OC)=CO[C@@H](O[C@@H]5O[C@H](CO)[C@@H](O)[C@H](O)[C@H]5O)[C@@H]4[C@H](C)O3)[C@@H](O)[C@H](O)[C@H]2O)[C@@H]2[C@H](C)O[C@@H](OC)C[C@H]12
experimentalSystem: HepG2
Activity: Non-Toxic

Data provenance is ChEMBL document CHEMBL4130553.
